Reference source for all entries: patent US7435837B2

- studyTarget: human 5-HT2C receptor (Homo sapiens, UniProt P28335)
- Sequence (P28335 33-458): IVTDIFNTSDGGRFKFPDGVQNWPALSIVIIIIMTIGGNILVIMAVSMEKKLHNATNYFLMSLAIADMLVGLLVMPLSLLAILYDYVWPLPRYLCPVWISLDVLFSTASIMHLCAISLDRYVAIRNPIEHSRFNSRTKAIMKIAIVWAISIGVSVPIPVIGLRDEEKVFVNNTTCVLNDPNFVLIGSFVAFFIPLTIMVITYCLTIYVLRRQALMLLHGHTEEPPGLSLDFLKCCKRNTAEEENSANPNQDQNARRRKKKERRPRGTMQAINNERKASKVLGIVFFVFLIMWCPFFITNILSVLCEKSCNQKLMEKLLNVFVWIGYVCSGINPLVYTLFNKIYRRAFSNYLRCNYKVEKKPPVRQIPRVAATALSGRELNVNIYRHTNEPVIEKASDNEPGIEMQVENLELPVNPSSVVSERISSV
- protocolDescription: 5-HT2C receptor-stimulated calcium mobilization (FLIPR) in CHO cells
- Type: cell-based
- measurementParameters: percentage of the response observed with a maximally effective concentration of 5-HT
Kindly supply the reported 5-HT2C Function Emax (%) values for the records listed here.
Numbers only, in %.

Solved entries:
| compound | 5-HT2C Function Emax (%) |
| --- | --- |
| Cc1ccccc1-c1cccc2c1OC(CN)C2 (single isomer, unassigned; (-)) | 80 |
| NCC1Cc2cccc(-c3ccc(C(F)(F)F)cc3)c2O1 (single isomer, unassigned; (-)) [Example 138] | 60 |
| Cc1cccc(C)c1-c1cc(Cl)cc2c1OC(CN)C2 (single isomer, unassigned; (+)) | 70 |
| Cc1ccccc1-c1cc(Cl)cc2c1OC(CN)C2 (single isomer, unassigned; (-)) [Example 97] | 60 |
| CC(C)(C)c1cc(Cl)cc2c1OC(CN)C2 (single isomer, unassigned; (+)) | 80 |

# batch size: 2; output 5-HT2C Function Emax (%) per entry
1. CNCC1Cc2cccc(-c3ccccc3Cl)c2O1 (single isomer, unassigned; (-))
2. NCC1Cc2cc(F)cc(-c3ccccc3C(F)(F)F)c2O1 (single isomer, unassigned; (+)) [Example 152]

1: 80; 2: 70

----------
- studyTarget: human 5-HT2C receptor (Homo sapiens, UniProt P28335)
- protocolDescription: 5-HT2C receptor-stimulated calcium mobilization (FLIPR) in CHO cells;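 further: Fluo-3-AM fluorescence read on FLIPR every 1 s, agonist added after 10 baseline reads, response taken as peak minus lowest raw fluorescence count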
- Assay type: cell-based
- measurementParameters: CHO, percentage of the response observed with a maximally effective concentration of 5-HT; read-out: 5-HT2C Function Emax (%)
Can you tell me Emax for the items I'm about to list?
Numbers only, in %.

Example entries and their recorded answers appear below.
| molecule | observedValue |
| --- | --- |
| NCC1Cc2cccc(Cc3ccccc3)c2O1 (single isomer, unassigned; (+)) | 65 |
| CNCC1Cc2cccc(-c3cccc(OC)c3)c2O1 (racemic) | 60 |
| Cc1cccc(C)c1-c1cccc2c1OC(CN)C2 (racemic) [Example 56] | 100 |
| CNCC1Cc2cccc(-c3c(Cl)cccc3Cl)c2O1 (single isomer, unassigned; (-)) [Example 434] | 90 |
| CNCC1Cc2cc(OC)cc(-c3ccccc3Cl)c2O1 (racemic) | 80 |

# map each molecule to its Emax
1. CNCC1Cc2cc(OC)cc(-c3cc(F)ccc3F)c2O1 (racemic)
2. CNCC1Cc2cccc(-c3ccc(F)cc3)c2O1 (racemic)
3. CNCC1Cc2cc(F)cc(-c3ccccc3Cl)c2O1 (racemic)
4. NCC1Cc2cc(F)cc(-c3ccccc3Cl)c2O1 (racemic)

70
80
90
100

Below is a list of molecules. For each, state its recorded Emax.
1. COc1cc2c(c(-c3cccc(F)c3F)c1)OC(CN)C2 (racemic)
2. CNCC1Cc2cc(C)cc(-c3cc(Cl)ccc3Cl)c2O1 (racemic) [Example 486]
3. COc1ccc(-c2cccc3c2OC(CN)C3)c(OC)c1 (racemic) [Example 143]
4. NCC1Cc2cccc(-c3ccccc3Cl)c2O1 (single isomer, unassigned; (-)) [Example 129]
5. COc1cc2c(c(-c3cc(Cl)ccc3Cl)c1)OC(CN)C2 (single isomer, unassigned; (+)) [Example 368]
6. COc1cccc(-c2cc(C)cc3c2OC(CN)C3)c1OC (racemic) [Example 294]
7. CNCC1Cc2cc(F)cc(-c3ccccc3C)c2O1 (single isomer, unassigned; (-)) [Example 441]

1. 90
2. 90
3. 90
4. 100
5. 90
6. 90
7. 70

Which value of Emax has been reported for CNCC1Cc2cc(Cl)cc(-c3c(C)cccc3C)c2O1 (single isomer, unassigned; (-)) [Example 564] in the records?
90
